assay: Ratio of drug concentration in brain to plasma in Sprague-Dawley rat at 100 mg/kg, ip measured 6 hrs post administration by LC-MS/MS analysis; type: ADME, organism-based; conditions: read-out: BPR
measurement-type: Kp at 6 h
Would you mind answering with just the numeric figure?

| mol-smiles | Kp at 6 h |
| --- | --- |
| COc1ccc(NC(=O)c2ccccc2Nc2cccc(Cl)c2C)cc1 | 0.65 |

Let us examine a further case.
Dear colleague, I am looking for the recorded Kp at 6 h of the following compound: "Cc1c(Cl)cccc1Nc1ccccc1C(=O)Nc1ccc2c(c1)OCO2"
0.29

* * *

assay: Cmax in Sprague-Dawley rat at 100 mg/kg, ip measured up to 24 hrs by LC-MS analysis; format: ADME, organism-based; set-up: route intraperitoneal, dose 100 mg/kg, time <=24; settings: in vivo
measurement-type: Cmax (ng/mL)
// return numeric value only (unit: ng/mL, not printed)

| mol-smiles | unit-tag | val |
| --- | --- | --- |
| COc1ccc(NC(=O)c2ccccc2Nc2cccc(Cl)c2C)cc1 | ng/mL | 8370 |

Please turn your attention to the following entry.
Which Cmax is reported for this molecule? "Cc1c(Cl)cccc1Nc1ccccc1C(=O)Nc1ccc2c(c1)OCO2"
8870
